- assay.name: FRG1 promoter luciferase signal modulators, primary screen, FRG1 inhibition for FSHD, cell-based, C2C12 myotubes, firefly/Renilla luciferase, luminescence (AID 1084)
- reported.conditions: higher = more signal, called active from +8 up or from −8 down
measured.parameter: z-score
Please give only the number in your answer, with no unit.

Challenge: Need z-score, item COCCOC(=O)N1C(=O)[C@@]2(c3cc(C#CC4(O)CCCCCC4)ccc31)[C@H](C(=O)N1CCCCCCC1)[C@H]1C(=O)O[C@H](c3ccccc3)[C@H](c3ccccc3)N1[C@@H]2c1ccc(OCCO)cc1
Response given: -3.21

Challenge: Now give it for O=C(CS)NCCCCCCNC(=O)[C@H]1C[C@H]2C(=O)N[C@@H](Cc3ccccc3)C(=O)N2[C@H]1c1cccc(OCCO)c1 too.
Response given: 0.328

Challenge: Again, but for CN(C)CCCCNC(=O)[C@H]1C[C@H]2C(=O)N[C@@H](CCCCN(C)C)C(=O)N2[C@H]1c1cccc(OCCO)c1
Response given: -0.275

Challenge: Please do the same for O=C1O[C@@H](c2ccccc2)[C@@H](c2ccccc2)N2[C@@H](c3ccccc3OCCO)[C@]3(C(=O)Nc4ccccc43)[C@@H](C(=O)NC[C@H](O)c3ccccc3)[C@H]12 as well.
Response given: -2.8

Challenge: Next record, please: Cc1ccc(S[C@]2(C(=O)NCc3ccccc3)CC(=O)N(C(C)C)[C@@H]2c2ccc(CO)cc2I)cc1
Response given: -1.16

Challenge: Continue with CCCCC(=C=CC[C@@H](O)c1ccc(OCCO)cc1)C[C@@H](O)COCc1ccccc1
Response given: -2.2

Challenge: Also need COc1ccc([Si](C)(C)[C@@H]2[C@@H](CCO)O[C@]3(C(=O)N(Cc4cccc(N5C(=O)c6ccccc6Oc6ccccc65)c4)c4ccccc43)[C@H]2C)cc1 , thanks.
Response given: 0.133

Challenge: # iterate: C=CCOC(=O)[C@@H]1[C@H]2C(=O)O[C@H](c3ccccc3)[C@H](c3ccccc3)N2[C@H](c2ccc(OCCOC(=O)[C@H]3C[C@H]4C(=O)N[C@@H](CCCCNC(C)=O)C(=O)N4[C@H]3c3cccc(OCCO)c3)cc2)[C@@]12C(=O)Nc1ccc(I)cc12
Response given: 0.49

Challenge: Next: COC(=O)[C@@]1(Cc2ccccc2)[C@H]2c3cc(C(=O)N4CCCC4)n(Cc4ccsc4Br)c3C[C@H]2CN1C(=O)c1ccccc1
Response given: -0.444

Challenge: And then COCCOC(=O)N1C(=O)[C@@]2(c3cc(C#CC4=CCCCC4)ccc31)[C@H](c1ccc(O)cc1)N1[C@H](c3ccccc3)[C@H](c3ccccc3)OC(=O)[C@H]1[C@@H]2C(=O)Nc1nc2ccccc2s1 , what is it?
Response given: 1.53

Challenge: Cool, now CO[C@H]1O[C@H](CO)[C@@H](OC(=O)Nc2ccc(Oc3ccccc3)cc2)[C@H](OC(=O)Nc2ccccc2-c2ccccc2)[C@@H]1OC(=O)Nc1ccccc1-c1ccccc1
Response given: 1.17

Challenge: And COC(=O)C[C@H]1O[C@]2(C(=O)N(C)c3ccccc32)[C@@H](C)[C@@H]1[Si](C)(C)c1ccc(C)cc1 ?
Response given: -2.37

Challenge: Same question, COC(=O)[C@@]1(Cc2ccc(F)cc2)[C@H]2c3cc(C(=O)N4CCCC4)n(CCF)c3C[C@H]2CN1C(=O)c1ccccc1 this time
Response given: -0.533

Challenge: What do we get for C=C(CCCC)/C(=C/C[C@@H](OC(=O)c1ccncc1)c1cccc(OCCO)c1)c1cnc2ccccc2c1 ?
Response given: 2.51

Challenge: # repeat for C=C(CCCC)C(=O)CC[C@@H](OC(=O)c1cccnc1)c1ccccc1OCCO
Response given: -0.449

Challenge: // same read-out, input: COc1ccc([Si](C)(C)[C@H]2[C@H](CCn3cc([C@H](O)c4ccccc4)nn3)O[C@@]3(C(=O)N(Cc4ccc(N5CCOC5=O)cc4)c4ccccc43)[C@@H]2C)cc1
Response given: -1.58

Challenge: CC(=O)N1Cc2ccccc2C[C@]2(N=C(c3ccc(OCCCO)cc3)O[C@@H]2c2ccccc2)C1=O ?
Response given: -2.24

Challenge: Moving on to the next compound: C=CC[C@@]1(C(=O)O)N=C(c2ccc(OCCCO)cc2)O[C@@H]1c1ccccc1
Response given: 0.19

Challenge: Please give the result for CN(C)CCCNC(=O)[C@@]1(c2ccc([N+](=O)[O-])cc2)CC(=O)N(CC23CC4CC(CC(C4)C2)C3)[C@@H]1c1ccc(CO)cc1 too.
Response given: -2.36

Challenge: And then CC=CC(O)C1C=CC2C(=O)N(c3ccccc3)C(=O)C2N1Nc1ccccc1 (configuration not stated) , what is it?
Response given: 0.568

Challenge: Cool, now CC[C@@H]1[C@H]2C3C(=O)N(CC)C(=O)C3CC(=O)[C@H]2[C@H](c2ccc(C)cc2)N1S(=O)(=O)c1ccc(C)cc1 (some centres not stated)
Response given: -0.319

Challenge: Do the same for COCCOC(=O)N1C(=O)[C@@]2(c3ccccc31)[C@H](c1ccc(OCCO)cc1)N1[C@H](c3ccccc3)[C@H](c3ccccc3)OC(=O)[C@H]1[C@@H]2C(=O)Nc1nc2ccccc2s1 please
Response given: -0.567

Challenge: Further, for O=C(CS)NCCCCCCNC(=O)[C@@H]1C[C@@H]2C(=O)N3CCC[C@H]3C(=O)N2[C@@H]1c1cccc(OCCO)c1 ?
Response given: 1.05

Challenge: How about CN1C(=O)C2C=CC(C(O)Cc3ccccc3)N(N(c3ccccc3)c3ccccc3)C2C1=O (configuration not stated) ?
Response given: 0.357

Challenge: Query CC=CC(O)C1C=CC2C(=O)N(c3ccccc3)C(=O)C2N1Nc1ccc([N+](=O)[O-])cc1 (configuration not stated) next
Response given: 0.515

Challenge: Would you kindly repeat that for COC(=O)[C@@]1(Cc2ccc(OC)cc2)[C@H]2c3cc(C(=O)N(C)C)n(CCc4c[nH]c5ccc(O)cc45)c3C[C@H]2CN1C(=O)c1ccccc1 ?
Response given: 1.5

Challenge: What do you have for CC(C)N1CC=CC23O[C@@H]4C=CCOC(=O)[C@@H]4[C@H]2C(=O)N(C(C)CO)[C@@H]3C1=O (some centres not stated) ?
Response given: 0.106
